Tested on: UO-31 renal
Assay: NCI-60 one-dose screen, 48 h
Details: 10 µM unless noted
About 83,000 compounds went through this panel and 20% of them were active in at least one assay; those are over-represented in the sample as a whole. Active and inactive are the calls of the source. The calls were made as follows: active = growth percent below 10; inactive = the rest.
Output constraint: value belongs to active, inactive

Oc1ccccc1C=Nc1ccccc1N=Cc1ccccc1O.[Cu+2]	inactive

Record request — test call for Cc1cc2c(cc1[N+](=O)[O-])NC(CNC(C)C)CC2 (stereo unspecified)
inactive

Do the same for Oc1ccc(Cc2ccc(O)c(C3CC(c4ccc(Cl)cc4)=NN3)c2)cc1C1CC(c2ccc(Cl)cc2)=NN1 (stereo unspecified) please
active

Do the same for `CC(C)C/C(=N\NC(=O)c1ccncc1)c1cc(Cl)ccc1O` please
inactive

Do the same for `CC(C)c1nc(N(C)S(C)(=O)=O)nc(-c2ccc(F)cc2)c1/C=C/[C@@H](O)C[C@@H](O)CC(=O)O` please
inactive

Do the same for CCOC(=O)C(C(C)=O)c1nc2sc3cc(Cl)ccc3n2c(=N)c1C#N (stereo unspecified) please
inactive

Do the same for `COc1ccc(CCN2CCCN3C2=Nc2ccccc2S3(=O)=O)cc1` please
inactive

Attribution: PubChem BioAssay (NCI)
